test: inhibitors of Sendai virus-induced IRF3 signaling, primary screen, TLR/RLR signaling modifier project, cell-based, Sendai virus stimulus, luciferase, 10K MLSCN set (AID 602276); conditions: HEK293 RL24 IRF3 luciferase reporter, at 10 µM, stronger effect = higher value;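 note: firefly luciferase from ISG56 promoter only with Renilla not read in this screen; 0% = Sendai virus plus DMSO and 100% = medium plus DMSO without virus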
experimental.readout: inhibition (%)
Answer with a number only, understood to be in %.

compound: Cc1ccc(NC(=O)CN(C)S(=O)(=O)c2cccc3nsnc23)cc1Cl
inhibition, %: -17.3

compound: c1ccc(Cn2nnnc2CN2CCN(c3ncccn3)CC2)cc1
inhibition, %: 11.4

compound: CCN(c1ccc2c(c1)OCO2)S(=O)(=O)c1cc(Br)cc2c1N(C(=O)C1CC1)CC2
inhibition, %: 11.9

compound: CCOn1c(=O)c(=O)n(OCc2ccccc2)c2ccccc21
inhibition, %: 19.9

compound: COCCN(Cc1cc2cc3c(cc2n2nnnc12)OCO3)C(=O)c1ccccc1F
inhibition, %: 3.47

compound: CCS(=O)(=O)N1CCCC(c2nc(-c3cccc(OC)c3)no2)C1 (stereo unspecified)
inhibition, %: -28.7

compound: CCCCCn1c(CN2CCN(C)CC2)nc2c1c(=O)n(C)c(=O)n2C
inhibition, %: 1.18

compound: Cc1cccnc1-n1c(CCN2C(=O)c3ccccc3C2=O)nc2ccccc2c1=O
inhibition, %: 2.74

Please give the measured inhibition for this compound: "CC(C)c1nnc(SCC(=O)NCc2ccco2)n1C" 3.77

Next entry: "O=C(c1ccc2c(c1)[nH]c(=S)n1c3ccccc3nc21)N1CCN(c2ncccn2)CC1" 13.2

Next entry: Cc1nnc(N2C(=O)c3oc4ccccc4c(=O)c3C2c2ccco2)s1 (stereo unspecified) 12.3

###

target: Muscarinic acetylcholine receptor M4 (Homo sapiens); experiment: compounds altering M4/GIRK thallium flux, either direction, primary screen, M4 allosteric agonist project, cell-based, HEK293 M4/GIRK, BTC-AM (AID 625); conditions: at 10 µM, actives lie on both sides;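 note: thallium influx through GIRK channels coupled to M4 in HEK293 cells with BTC-AM dye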
experimental.readout: fluorescence slope
Form field (numeric): enter value without unit.

compound: CCOC(=O)CSc1nc(-c2ccc3c(c2)OCO3)ccc1C#N
fluorescence slope: 0.00583

compound: CCOC(=O)Cc1[nH]nc2c1C(c1cc(OC)ccc1OC)C(C#N)=C(N)O2 (stereo unspecified)
fluorescence slope: 0.00642

compound: O=C(O)C1CC(=O)n2c(nc3ccccc32)S1 (stereo unspecified)
fluorescence slope: 0.00435

compound: CC(C)NCc1c(O)c(Br)cc2oc3c(c12)CCCC3
fluorescence slope: 0.00361

compound: CC(C)Cc1[nH]c(=O)c(C#N)c2c1COC(C)(C)C2
fluorescence slope: 0.00369

compound: Cc1cc(=O)oc2ccc(OCC(=O)N3CCc4ccccc43)cc12
fluorescence slope: 0.00705

compound: COc1ccc(/C(O)=C2/C(=O)C(=O)N(Cc3ccco3)C2c2cccs2)cc1 (stereo unspecified)
fluorescence slope: 0.00532

compound: CCSc1nnc(NC(=O)C(C)(C(F)(F)F)C(F)(F)F)s1
fluorescence slope: 0.00486

compound: NC(=O)CSc1nnc2n(-c3ccccc3)c(=O)c3c4c(sc3n12)CCCCC4
fluorescence slope: 0.00448

compound: O=C(c1ccccc1)n1c(=S)nc2ccccn21
fluorescence slope: 0.00539

// below: fluorescence slope requested for another compound
Muscarinic acetylcholine receptor M4 (Homo sapiens) / fluorescence slope / "COc1cc(Cn2ccnc2)c(OC)cc1Cn1ccnc1" : value? 0.0052

###

experiment: inhibitors of TNFa-induced NFkB p65 translocation, primary screen, imaging, HUVEC, MLSMR starter and 10KST1 sets (AID 438); conditions: HUVEC TNFa-induced p65 nuclear translocation; measured here: nuclei count (cytotoxicity indicator), at 2.08 µM;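 note: compound added about 3h40 before a 20 min TNFalpha stimulation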
# binarize cell count: threshold 400 inclusive, high side 1, low side 0

Previously resolved entries follow.
compound: CC(C(=O)N(C)C)N(C#N)c1nc(N(C)C)nc(N(C)C)n1 (stereo not drawn)
assigned.class: 1
--
compound: Cc1ccc(/C=c2\s/c(=C(/C#N)C(=O)N3CCCC3)n(Cc3ccco3)c2=O)s1
assigned.class: 1
--
compound: COc1ccc(Cc2nnc(NC(=O)Cc3cccs3)s2)cc1
assigned.class: 1
--
compound: COc1ccc(N(CC(=O)Nc2cc(C)ccc2C)S(=O)(=O)c2c(C)nn(C)c2C)cc1
assigned.class: 1
--
compound: CCc1[nH]c(=O)c(C#N)c2c1CSC(C)(C)C2
assigned.class: 1
--
compound: O=c1[nH]c2cnccc2n1-c1ccccc1
assigned.class: 1
--
compound: CC(=O)c1ccc(NS(=O)(=O)c2ccccc2)cc1
assigned.class: 1
--
compound: CCCCn1c(CNC(=O)CCC)nc2ccccc21
assigned.class: 1
--
compound: CCc1nc2sc3ccccc3c(=O)c2c(=O)n1Cc1ccco1
assigned.class: 1
--
compound: Cc1c(C)c2cc(Cl)c(O)c(CN3CCCC(C)C3)c2oc1=O (stereo not drawn)
assigned.class: 1

Read the next record carefully.
Decide: is the reported value of cell count for "Cn1c(=O)c2c(nc(N3CCC(C(N)=O)CC3)n2CCSc2nc3ccccc3s2)n(C)c1=O" equal to or greater than 400? 1

###

target: Voltage-gated potassium channel subunit beta-2 (Rattus norvegicus) (UniProt P62483); assay: KvBeta enzyme negative modulators, primary screen, biochemical, NADPH fluorescence (AID 622); settings: recombinant KvBeta, 4-cyanobenzaldehyde reduction, at 10 µM, stronger effect = higher value;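 note: slope of raw intensity against log time taken from 70 to 1610 s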
Sequence (P62483 whole entry, looked up): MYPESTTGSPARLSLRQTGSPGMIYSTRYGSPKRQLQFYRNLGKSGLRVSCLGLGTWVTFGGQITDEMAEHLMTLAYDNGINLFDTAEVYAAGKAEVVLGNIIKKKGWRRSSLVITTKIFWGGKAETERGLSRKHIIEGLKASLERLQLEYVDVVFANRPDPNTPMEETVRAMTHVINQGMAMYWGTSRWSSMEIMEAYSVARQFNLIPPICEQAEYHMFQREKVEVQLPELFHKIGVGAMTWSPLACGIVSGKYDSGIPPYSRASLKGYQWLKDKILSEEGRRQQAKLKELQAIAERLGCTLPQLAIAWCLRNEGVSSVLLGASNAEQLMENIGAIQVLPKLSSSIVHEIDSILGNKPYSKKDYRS
experimental.readout: fluorescence slope
Form field (numeric): enter value without unit.

compound: O=C(NCc1ccccn1)c1cccs1
fluorescence slope: -0.479

Please give the measured fluorescence slope for this compound: "COc1cc(N2CCCC2)c(OC)cc1/C=c1/sc2nc3ccccc3n2c1=O" -0.438

Next entry: COc1ccccc1-c1nc2n(n1)C(c1cccs1)C(C(=O)Nc1cccnc1)=C(C)N2 (configuration not stated) -0.587

Next entry: "O=C(Nn1c(C2CC2)nc2ccccc2c1=O)c1ccco1" -0.48

Next entry: "O=C(c1cnccn1)N(c1ccccc1)C1(C(=O)NC2CCCC2)CCCCC1" -0.518

Next entry: CC(=O)Nc1ccc(NCC(O)COc2ccccc2)cc1 (configuration not stated) -0.495

Next entry: "Cc1cc(=O)oc(C)c1C(=O)NCCC1=CCCCC1" -0.415

Next entry: "CCC(=O)Nc1ccc2nc(SCC(=O)N3CCCC3)sc2c1" -0.503

###

experiment: inhibitors of E-selectin induction by TNFa, primary screen, imaging, HUVEC, immunofluorescence, MLSMR starter and 10KST1 sets (AID 487); conditions: HUVEC TNFalpha-induced E-selectin immunofluorescence imaging, at 2 µM; stronger effect = higher value;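 note: signal is fraction of cell area covered by stained E-selectin grains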
experimental.readout: inhibition (%)
Answer with a number only, understood to be in %.

// below: answered compounds
compound: CCCCc1ccc(NC(=O)N[C@H](C(=O)O)C(C)C)cc1
unit.of.measure: %
inhibition: -26.2

compound: COc1ccc(S(=O)(=O)N2CCCC(C(=O)NCc3ccccn3)C2)cc1 (stereo unspecified)
unit.of.measure: %
inhibition: 1.9

Please give the measured inhibition for this compound: "O=P1(O)C=C(c2ccccc2)NC(c2ccccc2)=C1" -48

Next entry: "CCNc1ccc(C(=O)OCC)cc1NC(=O)c1cc(S(=O)(=O)N2CCOCC2)ccc1C" -81.9

Next entry: CCC(=O)N(Cc1cccs1)C1CCOC(C)(C)C1 (stereo unspecified) 6.3

Next entry: COc1ccc(-c2nnc(SCC(=O)Nc3sc4c(c3C#N)CCC4)n2CC2CCCO2)cc1 (stereo unspecified) -171

###

test: inhibitors of E-selectin induction by TNFa, primary screen, imaging, HUVEC, immunofluorescence, MLSMR starter and 10KST1 sets (AID 487); settings: HUVEC TNFalpha-induced E-selectin immunofluorescence imaging, at 2 µM; stronger effect = higher value;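 note: signal is fraction of cell area covered by stained E-selectin grains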
# binarize inhibition: threshold -20% inclusive, high side fulfilled, low side not fulfilled

Previously resolved entries follow.
compound: Cc1ccc(C)c2[nH]c(=O)c(CN(CCN3CCCC3)C(=O)Nc3cccc(Cl)c3)cc12
assigned.class: not fulfilled
--
compound: CCc1cc(=O)oc2cc(OC(C)=O)cc(OC(C)=O)c12
assigned.class: fulfilled
--
compound: COC(=O)c1c(NC(=O)CSc2nnc(-c3cccnc3)n2Cc2ccco2)sc(C)c1C
assigned.class: fulfilled
--
compound: COc1ccc(CSC2=NCCN2)cc1Cl
assigned.class: not fulfilled
--
compound: COC(=O)c1ccc(Cn2c(O)c(N=O)c3ccccc32)o1
assigned.class: not fulfilled
--
compound: CCn1c(SCC(=O)Nc2ccc3c(c2)OCO3)nnc1-c1ccccc1O
assigned.class: not fulfilled
--
compound: O=C1OC(N2CCN(C/C=C/c3ccccc3)CC2)c2ccccc21 (stereo not drawn)
assigned.class: not fulfilled
--
compound: N#Cc1nc(COc2ccc(Cl)cc2)oc1N1CCN(Cc2ccccc2)CC1
assigned.class: not fulfilled
--
compound: CCCOc1ccc2ccccc2c1/C=N/n1cnnc1
assigned.class: fulfilled
--
compound: CC1N(O)C(c2ccc(Cl)cc2Cl)N(O)C1(C)C (stereo not drawn)
assigned.class: fulfilled

Decide: is the reported value of inhibition for "Cc1ccc2cc(CNC(C)C)c(=O)[nH]c2c1" equal to or greater than -20%? fulfilled

Next entry: "N/C(=N\S(=O)(=O)c1ccc(Cl)s1)c1ccccc1" not fulfilled

Next entry: "COc1ccc(-n2ncc3c(N4CCN(c5cccc(C)c5C)CC4)ncnc32)cc1" not fulfilled

Next entry: CC(CCc1ccco1)NC(=O)Cn1ncc2c1-c1ccccc1OC2 (stereo not drawn) fulfilled
